TESTED_SYSTEM: human C5 protein (human, UniProt P01031 19-673; P01031 678-1676)
ASSAY_PROCEDURE: cell-based or functional assay
Positions of bridges follow the written chain, without caps; N, C: chain ends. Non-standard residues stand in square brackets, D forms with d. Primed or numbered codes have the meaning given here. mXylyl″ = bridging moiety between the two marked residues; Trp(7-aza) = N[C@@H](Cc1c[nH]c2ncccc12)C(=O)O; pXylyl = bridging moiety between residues; Chg = N[C@H](C(=O)O)C1CCCCC1; Phg = N[C@H](C(=O)O)c1ccccc1; Tle = CC(C)(C)[C@H](N)C(=O)O; NMeS = CN[C@@H](CO)C(=O)O; Nva = CCC[C@H](N)C(=O)O
QUANTITY: Avg. IC50, human hemolysis assay (nM)
Write the number in nM without appending the unit.

Documented Avg. IC50, human hemolysis assay of Ac-[Nva]C[Phg]T[Trp(7-aza)]EY[NMeS]HC[Nva]P[Nva]-NH2 (linker 2-10 via mXylyl″) [R3008] : 97

Record summary for Ac-[Nva]C[Phg]T[Trp(7-aza)]EY[NMeS]HC[Nva]-NH2 (linker 2-10 via pXylyl) [R3050] : reported Avg. IC50, human hemolysis assay = 42.9

Recorded result, Ac-[Nva][Nva]YEN[Tle]Y[Trp(7-aza)]EYP[Chg][Nva]K-NH2 (SMILES CCC[C@H](NC(C)=O)C(=O)N[C@@H](CCC)C(=O)N[C@@H](Cc1ccc(O)cc1)C(=O)N[C@@H](CCC(=O)O)C(=O)N[C@@H](CC(N)=O)C(=O)N[C@H](C(=O)N[C@@H](Cc1ccc(O)cc1)C(=O)N[C@@H](Cc1c[nH]c2ncccc12)C(=O)N[C@@H](CCC(=O)O)C(=O)N[C@@H](Cc1ccc(O)cc1)C(=O)N1CCC[C@H]1C(=O)N[C@H](C(=O)N[C@@H](CCC)C(=O)N[C@@H](CCCCN)C(N)=O)C1CCCCC1)C(C)(C)C) [R3072] , Avg. IC50, human hemolysis assay: 26.9

According to the records, this binder Ac-[Nva]C[Phg]T[Trp(7-aza)]EY[NMeS]HC-NH2 (linker 2-10 via mXylyl″) [R3013] displays Avg. IC50, human hemolysis assay of 344

Source listed as patent US20210283212A1.
